Tested on: A-431
Test: Cytotoxic effect on A431 human epidermoid carcinoma cells
Format: functional, cell-based
IC50 values, listed per item
measurement label: IC50 (µM)

molecule	unit spec	value observed
COc1cc(N)c(C(=O)Nc2cccc(C(F)(F)F)c2)cc1OC	µM	470
COc1cccc(NC(=N)c2cc(OC)c(OC)cc2N)c1	µM	340
COc1cc2c(cc1OC)C(Nc1cccc(Cl)c1)=NC(C)(C)N2	µM	200
COc1cc2c(cc1OC)C(Nc1cccc(Br)c1)=NC(C)(C)N2	µM	130
COc1cc(N)c(C(=N)Nc2cccc(Cl)c2)cc1OC	µM	460
COc1cc(N)c(C(=O)Nc2cccc(Br)c2)cc1OC	µM	340
COc1cc(N)c(C(=N)Nc2ccc(F)c(Cl)c2)cc1OC	µM	200
COc1cc(N)c(C(=N)Nc2cccc(Br)c2)cc1OC	µM	300
COc1cccc(NC(=O)c2cc(OC)c(OC)cc2N)c1	µM	200
COc1cc2c(cc1OC)C(Nc1ccc(F)c(Cl)c1)=NC(C)(C)N2	µM	90
COc1cccc(NC2=NC(C)(C)Nc3cc(OC)c(OC)cc32)c1	µM	320
